Test system: Liver
Test: Intrinsic clearance in human liver microsomes assessed per mg protein at 1 uM preincubated for 10 mins followed by NADPH addition measured after 45 mins by LC-MS/MS analysis
Format: ADME, microsome
Details: microsomes, 0.75 h, 1 µM
measuredQuantity: microsomal CLint (µL/min/mg)

COC(c1cc(Cl)c2c(c1Cl)C(=O)N(Cc1c(C)cc(C)[nH]c1=O)CC2)C1CCOCC1 (single isomer, unassigned; (+)) | 129
COC(c1cc(Cl)c2c(c1Cl)C(=O)N(Cc1c(C)cc(C)[nH]c1=O)CC2)C1CCN(C2COC2)CC1 (single isomer, unassigned; (+)) | 72.7

P. COc1cc(C)[nH]c(=O)c1CN1CCc2c(Cl)cc(C(OC)C3CCOC3)c(Cl)c2C1=O (single isomer, unassigned; form 1)
Q. Cc1cc(C)c(CN2CCc3c(Cl)cc(C(CO)C4CCOC4)c(Cl)c3C2=O)c(=O)[nH]1 (stereo in doubt; (-)-6b)
Data request: Which record would sort first by descending microsomal CLint, P or Q ? Answer by quoting the chosen item's label.
Data returned: P
(P: 97.2 µL/min/mg, Q: 25.9 µL/min/mg)

* * *

Biological target: Histone-lysine N-methyltransferase EZH2 (Homo sapiens, UniProt Q15910, Y641N)
Sequence (Q15910 whole entry Y641N): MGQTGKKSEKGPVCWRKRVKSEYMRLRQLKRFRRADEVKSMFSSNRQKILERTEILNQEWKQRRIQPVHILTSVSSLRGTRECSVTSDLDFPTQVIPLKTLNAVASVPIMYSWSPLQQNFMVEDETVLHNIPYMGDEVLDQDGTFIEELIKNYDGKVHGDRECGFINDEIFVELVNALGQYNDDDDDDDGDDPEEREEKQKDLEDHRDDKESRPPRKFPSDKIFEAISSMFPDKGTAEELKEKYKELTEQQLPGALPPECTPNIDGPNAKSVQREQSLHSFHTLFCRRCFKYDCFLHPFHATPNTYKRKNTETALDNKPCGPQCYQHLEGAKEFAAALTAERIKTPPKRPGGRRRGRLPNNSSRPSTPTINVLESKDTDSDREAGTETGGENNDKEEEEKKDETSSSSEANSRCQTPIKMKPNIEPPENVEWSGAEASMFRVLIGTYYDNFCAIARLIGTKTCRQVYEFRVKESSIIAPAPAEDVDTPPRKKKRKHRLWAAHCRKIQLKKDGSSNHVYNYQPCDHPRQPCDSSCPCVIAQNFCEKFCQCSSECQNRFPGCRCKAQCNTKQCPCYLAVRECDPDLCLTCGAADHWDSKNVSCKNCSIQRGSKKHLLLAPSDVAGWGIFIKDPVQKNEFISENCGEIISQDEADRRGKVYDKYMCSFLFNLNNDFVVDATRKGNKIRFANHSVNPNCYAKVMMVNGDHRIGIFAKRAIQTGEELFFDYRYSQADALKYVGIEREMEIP
Assay: Inhibition of EZH2 Y641N mutant (unknown origin) using oligonucleosomes as substrate after 60 mins in presence of [3H]SAM by scintillation counting analysis
pKi: −log10 of the molar value.
measuredQuantity: pKi

P. Cc1cc(C)c(CN2CCc3c(Cl)cc([C@@H](C)CO)c(Cl)c3C2=O)c(=O)[nH]1
Q. CCOC(c1cc(Cl)c2c(c1Cl)C(=O)N(Cc1c(C)cc(C)[nH]c1=O)CC2)C1CS(=O)(=O)C1 (single isomer, unassigned; (+))
Data request: Which record would sort first by descending pKi, P or Q ? Answer by quoting the chosen item's label.
Data returned: Q

1. CCC(CO)c1cc(Cl)c2c(c1Cl)C(=O)N(Cc1c(C)cc(C)[nH]c1=O)CC2 (single isomer, unassigned; (+))
2. COc1cc(C)[nH]c(=O)c1CN1CCc2c(Cl)cc([C@@H](OC)C3COC3)c(Cl)c2C1=O
Data request: Looking at 1 and 2 , which one comes out lower in pKi terms? Answer by quoting the chosen item's label.
Data returned: 2

A. COC(c1cc(Cl)c2c(c1Cl)C(=O)N(Cc1c(C)cc(C)[nH]c1=O)CC2)C1CCOC1 (single isomer, unassigned; (+)-10a)
B. CCC(OC)c1cc(Cl)c2c(c1Cl)C(=O)N(Cc1c(C)cc(C)[nH]c1=O)CC2 (single isomer, unassigned; (-))
Data request: Which record would sort first by descending pKi, A or B ? Answer by quoting the chosen item's label.
Data returned: A
(A: 9.22, B: 8.10)

1. Cc1cc(C)c(CN2CCc3c(Cl)cc(-c4c(C)noc4C)c(Cl)c3C2=O)c(=O)[nH]1
2. Cc1cc(C)c(CN2CCc3c(Cl)cc(C(CO)C4CCOC4)c(Cl)c3C2=O)c(=O)[nH]1 (stereo in doubt; (-)-6b)
3. Cc1cc(C)c(CN2CCc3c(Cl)cc(C(CO)C4CCOCC4)c(Cl)c3C2=O)c(=O)[nH]1 (stereo in doubt; (+)-8b)
4. COC(c1cc(Cl)c2c(c1Cl)C(=O)N(Cc1c(C)cc(C)[nH]c1=O)CC2)C1CCN(C2COC2)CC1 (single isomer, unassigned; (+))
5. COc1cc(C)[nH]c(=O)c1CN1CCc2c(Cl)cc([C@@H](O)C3COC3)c(Cl)c2C1=O
Data request: Put the items in order so that reported pKi rises from first to last. Show the ranking through the labels, in the order asked for.
Data returned: 3, 5, 1, 4, 2
